# maps each entry to its log10 IC50
biological target: full length MPS1 (Homo sapiens, UniProt P33981); assay: biochemical
Sequence (P33981 whole entry): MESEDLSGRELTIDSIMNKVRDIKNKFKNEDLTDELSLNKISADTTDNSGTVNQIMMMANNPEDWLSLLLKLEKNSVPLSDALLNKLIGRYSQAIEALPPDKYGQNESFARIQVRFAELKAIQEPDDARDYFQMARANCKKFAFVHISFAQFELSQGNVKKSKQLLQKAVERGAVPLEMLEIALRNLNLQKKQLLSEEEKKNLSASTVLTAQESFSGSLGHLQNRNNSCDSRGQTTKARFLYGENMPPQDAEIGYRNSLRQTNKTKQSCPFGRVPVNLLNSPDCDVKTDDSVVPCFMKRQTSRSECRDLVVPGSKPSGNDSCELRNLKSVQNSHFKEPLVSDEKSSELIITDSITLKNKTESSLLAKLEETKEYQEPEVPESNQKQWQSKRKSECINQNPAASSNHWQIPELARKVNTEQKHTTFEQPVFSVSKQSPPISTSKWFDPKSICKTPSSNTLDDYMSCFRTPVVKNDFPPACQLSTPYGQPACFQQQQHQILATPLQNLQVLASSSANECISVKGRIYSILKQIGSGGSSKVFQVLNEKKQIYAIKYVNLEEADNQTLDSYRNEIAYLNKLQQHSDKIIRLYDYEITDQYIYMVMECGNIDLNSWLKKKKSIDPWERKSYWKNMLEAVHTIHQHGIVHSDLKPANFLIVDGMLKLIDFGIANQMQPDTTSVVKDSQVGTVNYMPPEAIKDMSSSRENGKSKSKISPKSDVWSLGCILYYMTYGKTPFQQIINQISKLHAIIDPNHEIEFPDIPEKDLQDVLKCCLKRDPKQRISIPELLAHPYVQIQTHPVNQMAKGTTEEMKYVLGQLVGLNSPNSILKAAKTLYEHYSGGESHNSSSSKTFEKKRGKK
Readout Type: log10 IC50 (log10 of the value in nM)

| Compound | Reading |
| --- | --- |
| Cn1cc(-c2cc3cnc(Nc4ccc(C(=O)N5CC(F)(F)C5)cc4Cl)cc3n2C(=O)OC(C)(C)C)cn1 [Example 50] | 0.78 |
| COc1cc(C(=O)N2CCOCC2)ccc1Nc1cc2c(cn1)cc(-c1cnn(C)c1)n2C(=O)OC(C)(C)C [Example 10] | 0.70 |
| Cc1nc(C)c(-c2ccc(Nc3cc4c(cn3)cc(-c3cnn(C)c3)n4C(=O)OC(C)(C)C)c(Cl)c2)s1 [Example 45] | 1.72 |
| COC1CN(C(=O)c2ccc(Nc3cc4[nH]c(-c5cnn(C)c5)cc4cn3)c(Cl)c2)C1 [Example 142] | 1.00 |
| Cn1cc(-c2cc3cnc(Nc4ccc(-c5nccn5C)cc4Cl)cc3n2C(=O)OC(C)(C)C)cn1 [Example 22] | 0.48 |
| Cc1c(-c2ccc(Nc3cc4c(cn3)cc(-c3cnn(C)c3)n4C(=O)OC(C)(C)C)c(Cl)c2)cnn1C [Example 20] | 0.85 |
| CN(C)C(=O)c1ccc(Nc2cc3[nH]c(-c4cnn(C)c4)cc3cn2)c(OC(F)(F)F)c1 [Example 113] | 1.83 |
